assay_protocol: Cytotoxicity against human LO2 cells assessed as inhibition of cell viability at 64 ug/ml after 24 hrs by MTT assay
Format: cell-based, L02
condition_context: read-out: INH
readout: cytotoxicity at 24 h, 64 ug/ml (%)
Give the number; % is assumed, so skip it.

Incoming: Would you kindly share the measured cytotoxicity at 24 h, 64 ug/ml for Cc1ncc([N+](=O)[O-])n1CC(O)Cn1cc(C(=O)O)c(=O)c2ccc(C(F)(F)F)cc21 (stereo unspecified) ?
Outgoing: 15.2

----------
assay_protocol: Octanol-water partition co-efficient, log P of the compound by shake flask method
Format: physicochemical
Kindly supply the reported logP values for the records listed here.
Give the figure by itself; no unit, no explanation.

Incoming: Would you kindly share the measured logP for Cc1ncc([N+](=O)[O-])n1CC(O)Cn1cc(C(=O)O)c(=O)c2cc(F)cc(F)c21 (stereo not drawn) ?
Outgoing: -0.21

Incoming: Would you kindly share the measured logP for Cc1ncc([N+](=O)[O-])n1CC(O)Cn1cc(C(=O)O)c(=O)c2ccc(C(F)(F)F)cc21 (stereo not drawn) ?
Outgoing: -0.25

Incoming: Would you kindly share the measured logP for Cc1ncc([N+](=O)[O-])n1CC(O)Cn1cc(C(=O)O)c(=O)c2cc(Cl)cc(Cl)c21 (stereo not drawn) ?
Outgoing: 0.22
